assay type: in vitro ADME, human
Where a SMILES comes first, the peptide text is derived from it. [ ]: non-standard residue; d: D form. The star is where a group is joined. DOTA = O=C(O)CN1CCN(CC(=O)O)CCN(CC(=O)*)CCN(CC(=O)O)CC1

compound	stability in human serum
CC(C)C[C@@H](NC(=O)[C@H]1CCCN1C(=O)[C@H]1CCCN1C(=O)[C@H](N)CCCNC(=N)N)C(=O)N[C@H](Cc1c[nH]c2ccccc12)C(=O)N[C@@H](C(=O)N[C@H](C)C(=O)N[C@H](CCCCNC(=O)CN1CCN(CC(=O)O)CCN(CC(=O)O)CCN(CC(=O)O)CC1)C(=O)O)[C@H](C)O [^44Sc-3, [^44Sc]^DR7A-^DLys(DOTA-Sc), metal not drawn] (H-[dR][dP][dP][dL][dW][dT][dA][dK](DOTA)-OH)	insufficient stability
CC(C)C[C@@H](NC(=O)[C@H]1CCCN1C(=O)[C@H]1CCCN1C(=O)[C@H](N)CCCNC(=N)N)C(=O)N[C@H](Cc1c[nH]c2ccccc12)C(=O)N[C@@H](C(=O)N[C@H](C)C(=O)N[C@H](CCCCNC(=O)CN1CCN(CC(=O)O)CCN(CC(=O)O)CCN(CC(=O)O)CC1)C(=O)O)[C@H](C)O [^68Ga-3, [^68Ga]^DR7A-^DLys(DOTA-Ga), metal not drawn] (H-[dR][dP][dP][dL][dW][dT][dA][dK](DOTA)-OH)	insufficient stability
CC(C)C[C@H](NC(=O)[C@H](Cc1c[nH]c2ccccc12)NC(=O)[C@@H](NC(=O)[C@H](C)NC(=O)[C@@H](N)CCCCNC(=O)CN1CCN(CC(=O)O)CCN(CC(=O)O)CCN(CC(=O)O)CC1)[C@@H](C)O)C(=O)N1CCC[C@H]1C(=O)N1CCC[C@H]1C(=O)N[C@@H](CCCNC(=N)N)C(=O)O [^44Sc-1bis, [^44Sc]Lys(DOTA-Sc)-A7R, metal not drawn] (H-K(DOTA)ATWLPPR-OH)	insufficient stability

----------
format: physicochemical; settings: pH 7.4
Where a SMILES comes first, the peptide text is derived from it. [ ]: non-standard residue; d: D form. The star is where a group is joined. DOTA = O=C(O)CN1CCN(CC(=O)O)CCN(CC(=O)*)CCN(CC(=O)O)CC1; Ahx = NCCCCCC(=O)O

compound	stability in PBS buffer
CC(C)C[C@H](NC(=O)[C@H](Cc1c[nH]c2ccccc12)NC(=O)[C@@H](NC(=O)[C@H](C)NC(=O)CCCCCNC(=O)CN1CCN(CC(=O)O)CCN(CC(=O)O)CCN(CC(=O)O)CC1)[C@@H](C)O)C(=O)N1CCC[C@H]1C(=O)N1CCC[C@H]1C(=O)N[C@@H](CCCNC(=N)N)C(=O)O [^44Sc-1, [^44Sc]Sc-DOTA-Ahx-A7R, metal not drawn] ({DOTA-Ahx}-ATWLPPR-OH)	complete stability
CC(C)C[C@@H](NC(=O)[C@H]1CCCN1C(=O)[C@H]1CCCN1C(=O)[C@H](N)CCCNC(=N)N)C(=O)N[C@H](Cc1c[nH]c2ccccc12)C(=O)N[C@@H](C(=O)N[C@H](C)C(=O)N[C@H](CCCCNC(=O)CN1CCN(CC(=O)O)CCN(CC(=O)O)CCN(CC(=O)O)CC1)C(=O)O)[C@H](C)O [^68Ga-3, [^68Ga]^DR7A-^DLys(DOTA-Ga), metal not drawn] (H-[dR][dP][dP][dL][dW][dT][dA][dK](DOTA)-OH)	complete stability
CC(C)C[C@@H](NC(=O)[C@H]1CCCN1C(=O)[C@H]1CCCN1C(=O)[C@H](N)CCCNC(=N)N)C(=O)N[C@H](Cc1c[nH]c2ccccc12)C(=O)N[C@@H](C(=O)N[C@H](C)C(=O)N[C@H](CCCCNC(=O)CN1CCN(CC(=O)O)CCN(CC(=O)O)CCN(CC(=O)O)CC1)C(=O)O)[C@H](C)O [^177Lu-3, [^177Lu]^DR7A-^DLys(DOTA-Lu), metal not drawn] (H-[dR][dP][dP][dL][dW][dT][dA][dK](DOTA)-OH)	complete stability

----------
compounds and their reported logP ± SD
Experiment: physchem
Type: physicochemical
Conditions: pH 7.4
Protocol: The lipophilicity value, defined as the decimal logarithm (logP) of the partition coefficient (P), was tested in the system of two immiscible (but saturated with each other) phases: 0.1 M PBS solution, pH 7.4, and n-octanol, in three independent experiments. Partition coefficient was determined as a ratio of radioactivity of the organic (n-octanol) and aqueous (PBS solution) phases and was shown as the mean ± SD. […]
Where a SMILES comes first, the peptide text is derived from it. The star is where a group is joined. DOTA = O=C(O)CN1CCN(CC(=O)O)CCN(CC(=O)*)CCN(CC(=O)O)CC1
// return a plain number; no unit text

Lookup: Suppose we examine the compound CC(C)C[C@H](NC(=O)[C@H](Cc1c[nH]c2ccccc12)NC(=O)[C@@H](NC(=O)[C@H](C)NC(=O)[C@@H](N)CCCCNC(=O)CN1CCN(CC(=O)O)CCN(CC(=O)O)CCN(CC(=O)O)CC1)[C@@H](C)O)C(=O)N1CCC[C@H]1C(=O)N1CCC[C@H]1C(=O)N[C@@H](CCCNC(=N)N)C(=O)O [^68Ga-1bis, [^68Ga]Lys(DOTA-Ga)-A7R, metal not drawn] (H-K(DOTA)ATWLPPR-OH) ; what logP ± SD value has been reported?
Found: −4.18

Lookup: Please report the recorded logP ± SD for CC(C)C[C@H](NC(=O)[C@H](Cc1c[nH]c2ccccc12)NC(=O)[C@@H](NC(=O)[C@H](C)NC(=O)[C@@H](N)CCCCNC(=O)CN1CCN(CC(=O)O)CCN(CC(=O)O)CCN(CC(=O)O)CC1)[C@@H](C)O)C(=O)N1CCC[C@H]1C(=O)N1CCC[C@H]1C(=O)N[C@@H](CCCNC(=N)N)C(=O)O [^177Lu-1bis, [^177Lu]Lys(DOTA-Lu)-A7R, metal not drawn] (H-K(DOTA)ATWLPPR-OH) .
Found: −4.45

----------
Examples of compounds with documented logIC50 ± SD follow.
Target: VEGF-A165/NRP-1 complex (Homo sapiens, UniProt O14786)
Construct: purchased BioLegend (NRP-1); Abcam (bt-VEGF-A165)
Sequence (O14786 22-641 limits assumed): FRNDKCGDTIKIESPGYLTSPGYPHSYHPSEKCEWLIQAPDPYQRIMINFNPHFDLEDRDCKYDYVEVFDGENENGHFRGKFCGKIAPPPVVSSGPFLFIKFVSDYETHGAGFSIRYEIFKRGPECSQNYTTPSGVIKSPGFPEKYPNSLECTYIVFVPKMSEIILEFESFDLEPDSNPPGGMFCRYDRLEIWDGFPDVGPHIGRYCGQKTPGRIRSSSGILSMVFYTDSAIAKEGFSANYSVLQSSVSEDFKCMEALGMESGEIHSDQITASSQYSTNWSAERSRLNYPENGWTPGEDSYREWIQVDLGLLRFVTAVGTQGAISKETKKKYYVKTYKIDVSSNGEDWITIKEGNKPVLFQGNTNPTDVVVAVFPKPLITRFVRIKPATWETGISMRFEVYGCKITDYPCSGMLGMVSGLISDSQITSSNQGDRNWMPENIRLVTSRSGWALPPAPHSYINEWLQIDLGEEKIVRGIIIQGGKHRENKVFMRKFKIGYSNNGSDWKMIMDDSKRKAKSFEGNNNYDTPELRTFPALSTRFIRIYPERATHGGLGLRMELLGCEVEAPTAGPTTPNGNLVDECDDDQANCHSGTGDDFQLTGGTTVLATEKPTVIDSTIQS
Experiment: Competitive NRP-1-binding inhibition assay (competitive ELISA, bt-VEGF-A165 vs coated NRP-1)
Conditions: inhibition of VEGF-A165/NRP-1 complex formation; mean ± SD, n = 3
Where a SMILES comes first, the peptide text is derived from it. Side-chain parts run from the residue outwards. [ ]: non-standard residue; d: D form. The star is where a group is joined. DOTA = O=C(O)CN1CCN(CC(=O)O)CCN(CC(=O)*)CCN(CC(=O)O)CC1; hArg = N=C(N)NCCCC[C@H](N)C(=O)O; Dab = NCC[C@H](N)C(=O)O; Ahx = NCCCCCC(=O)O

Known results for compounds:
compound	logIC50 ± SD
CC(C)C[C@H](NC(=O)[C@H](Cc1c[nH]c2ccccc12)NC(=O)[C@@H](NC(=O)[C@H](C)NC(=O)CCCCCNC(=O)CN1CCN(CC(=O)O)CCN(CC(=O)O)CCN(CC(=O)O)CC1)[C@@H](C)O)C(=O)N1CCC[C@H]1C(=O)N1CCC[C@H]1C(=O)N[C@@H](CCCNC(=N)N)C(=O)O [Sc-1, Sc-DOTA-Ahx-A7R] ({DOTA-Ahx}-ATWLPPR-OH)	−4.65 ± 0.12
N=C(N)NCCCC[C@H](N)C(=O)NCCCC[C@H](N)C(=O)N[C@@H](CCNC(=O)CCCCCNC(=O)CN1CCN(CC(=O)O)CCN(CC(=O)O)CCN(CC(=O)O)CC1)C(=O)N1CCC[C@H]1C(=O)N[C@@H](CCCNC(=N)N)C(=O)O [Sc-2, Lys(hArg)-Dab(Ahx-DOTA-Sc)-Pro-Arg] (H-K(hArg)[Dab]([Ahx-DOTA])PR-OH)	−4.73 ± 0.03
CC(C)C[C@H](NC(=O)[C@H](Cc1c[nH]c2ccccc12)NC(=O)[C@@H](NC(=O)[C@H](C)NC(=O)[C@@H](N)CCCCNC(=O)CN1CCN(CC(=O)O)CCN(CC(=O)O)CCN(CC(=O)O)CC1)[C@@H](C)O)C(=O)N1CCC[C@H]1C(=O)N1CCC[C@H]1C(=O)N[C@@H](CCCNC(=N)N)C(=O)O [Sc-1bis, Lys(DOTA-Sc)-A7R] (H-K(DOTA)ATWLPPR-OH)	−4.74 ± 0.01

Lookup: Query for VEGF-A165/NRP-1 complex (Homo sapiens, UniProt O14786): what logIC50 ± SD does the record show for N=C(N)NCCCC[C@H](N)C(=O)NCCCC[C@H](N)C(=O)N[C@@H](CCN)C(=O)N1CCC[C@H]1C(=O)N[C@@H](CCCNC(=N)N)C(=O)O [K4R, Lys(hArg)-Dab-Pro-Arg] (H-K(hArg)[Dab]PR-OH) ?
Found: −5.32 ± 0.12
